molecular target: Torsin-1A-interacting protein 1 (Homo sapiens) (UniProt Q5JTV8); experiment: compound microarray binding of lysate hLAP1 – cell lysate, small-molecule microarray, COS7 lysate, 635/667 nm fluorescence, primary screen (AID 1116); conditions: 635 nm fluorescence, higher = more signal
Sequence (Q5JTV8 whole entry, looked up): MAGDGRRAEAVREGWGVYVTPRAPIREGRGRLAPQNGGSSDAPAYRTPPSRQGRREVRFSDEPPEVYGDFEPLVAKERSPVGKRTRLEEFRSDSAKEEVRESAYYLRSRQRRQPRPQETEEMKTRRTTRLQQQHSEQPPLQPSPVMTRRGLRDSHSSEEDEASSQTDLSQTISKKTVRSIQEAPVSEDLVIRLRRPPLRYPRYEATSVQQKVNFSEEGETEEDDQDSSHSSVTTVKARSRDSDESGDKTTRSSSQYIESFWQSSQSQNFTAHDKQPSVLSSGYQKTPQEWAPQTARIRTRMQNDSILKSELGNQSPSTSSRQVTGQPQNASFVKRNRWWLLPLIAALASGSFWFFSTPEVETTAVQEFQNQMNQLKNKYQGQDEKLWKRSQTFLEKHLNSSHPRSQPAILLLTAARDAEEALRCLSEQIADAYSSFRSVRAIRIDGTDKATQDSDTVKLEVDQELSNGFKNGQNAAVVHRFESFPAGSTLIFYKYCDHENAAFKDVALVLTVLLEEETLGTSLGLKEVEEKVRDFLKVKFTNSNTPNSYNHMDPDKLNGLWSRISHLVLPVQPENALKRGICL
Given measured composite z-score, output label 1 if it is greater than or equal to 1 and label 0 if not.

| record smiles | category |
| --- | --- |
| CO[C@H]1O[C@H](CO)[C@@H](OC(=O)Nc2ccc3c(c2)OCO3)[C@H](OC(=O)Nc2ccc3c(c2)OCO3)[C@H]1OC(=O)Nc1ccc2c(c1)OCO2 | label 1 |
| CCCNC(=O)[C@@]1(C)c2ccccc2C(=O)N(C(C)C)[C@H]1c1ccc(CO)cc1 | label 0 |
| C=CC[C@@]1(C(N)=O)N=C(c2ccc(OCCCO)cc2)O[C@@H]1c1ccccc1N=[N+]=[N-] | label 1 |
| CC(C)[C@H]1COC(=O)N1C(=O)[C@H]1[C@@H](c2ccccc2)N(c2ccccc2)O[C@@H]1C | label 0 |
| C=CCNC(=O)[C@@H]1[C@H]2C(=O)O[C@H](c3ccccc3)[C@H](c3ccccc3)N2[C@H](c2ccccc2OCCO)[C@@]12C(=O)N(C(=O)OCCOC)c1ccc(C#CCC(C(=O)OC)C(=O)OC)cc12 | label 1 |
| CC(C)(C)OC(=O)CC[C@@]1(C(=O)N2CCOCC2)N=C(c2ccc(OCCCO)cc2)O[C@@H]1c1ccccc1N=[N+]=[N-] | label 1 |
| C=C[C@@H](C)[C@@H](OC(=O)Nc1ccc(OC)cc1)c1ccc(O)c2ccccc12 | label 0 |
